Molecular target: T1, Recombinant human MASP1 enzyme (fragment corresponding to amino acids 297-699, C-terminal His Tag) (human, UniProt P48740 297-699)
T1 sequence: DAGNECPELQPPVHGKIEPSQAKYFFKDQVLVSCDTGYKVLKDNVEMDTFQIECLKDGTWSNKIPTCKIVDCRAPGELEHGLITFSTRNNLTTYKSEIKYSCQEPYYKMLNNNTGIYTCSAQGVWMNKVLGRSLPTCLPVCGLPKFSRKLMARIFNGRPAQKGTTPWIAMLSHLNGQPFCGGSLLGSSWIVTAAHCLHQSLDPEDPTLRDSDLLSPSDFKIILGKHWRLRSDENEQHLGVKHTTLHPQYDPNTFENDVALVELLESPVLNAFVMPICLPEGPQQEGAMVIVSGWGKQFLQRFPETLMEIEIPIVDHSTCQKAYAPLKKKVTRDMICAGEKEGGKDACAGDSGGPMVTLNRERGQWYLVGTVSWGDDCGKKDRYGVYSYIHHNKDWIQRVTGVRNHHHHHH
Test: cell-based or functional assay
Bridge positions count the residues as written; N and C are the ends. Square brackets hold non-standard residues; d marks the D form. Ends that are not written are not given here. tBuAla = CC(C)(C)C[C@H](N)C(=O)O; 4Pal = N[C@@H](Cc1ccncc1)C(=O)O; Pen = CC(C)(S)[C@H](N)C(=O)O; Sar = CNCC(=O)O
Assign human MASP1 IC50 to each entry below.
Respond with a number, then the unit of measure.

# binder, result
rows = [
    ("[Sar]ICSRS[tBuAla]PPICIPD-OH (disulfide 3-11; N-terminus assumed; SMILES CC[C@H](C)[C@H](NC(=O)CNC)C(=O)N[C@H]1CSSC[C@@H](C(=O)N[C@H](C(=O)N2CCC[C@H]2C(=O)N[C@@H](CC(=O)O)C(=O)O)[C@@H](C)CC)NC(=O)[C@H]([C@@H](C)CC)NC(=O)[C@@H]2CCCN2C(=O)[C@@H]2CCCN2C(=O)[C@H](CC(C)(C)C)NC(=O)[C@H](CO)NC(=O)[C@H](CCCNC(=N)N)NC(=O)[C@H](CO)NC1=O) [((N-Me)G)-IC+SRS-((tBu)A)-PPIC+IPD-OH]", "8.8 nM"),
]

Moving on to another binder below.
Ask: Entry under review: [4Pal]ICSRS[tBuAla]PPI[Pen]IPD-NH2 (disulfide 3-11; N-terminus assumed; SMILES CC[C@H](C)[C@H](NC(=O)[C@@H](N)Cc1ccncc1)C(=O)N[C@H]1CSSC(C)(C)[C@@H](C(=O)N[C@H](C(=O)N2CCC[C@H]2C(=O)N[C@@H](CC(=O)O)C(N)=O)[C@@H](C)CC)NC(=O)[C@H]([C@@H](C)CC)NC(=O)[C@@H]2CCCN2C(=O)[C@@H]2CCCN2C(=O)[C@H](CC(C)(C)C)NC(=O)[C@H](CO)NC(=O)[C@H](CCCNC(=N)N)NC(=O)[C@H](CO)NC1=O) [(4-Pal)-IC+SRS-((tBu)A)-PPI-(Pen)+IPD-NH2] . Reported human MASP1 IC50?
Reply: 6.4 nM
